# target-or-system: AGT (O6-alkylguanine-DNA alkyltransferase) C145A (Homo sapiens, UniProt P16455 1-207, C145A)
# Sequence (P16455 whole entry C145A): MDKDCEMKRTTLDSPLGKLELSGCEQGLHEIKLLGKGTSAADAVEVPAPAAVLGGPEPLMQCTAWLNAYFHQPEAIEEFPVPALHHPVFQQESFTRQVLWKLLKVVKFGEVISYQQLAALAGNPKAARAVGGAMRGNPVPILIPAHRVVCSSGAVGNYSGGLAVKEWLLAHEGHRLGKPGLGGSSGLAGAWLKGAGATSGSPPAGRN
# protocol-summary: EMSA
metric: Kd

p53 codon 248 O6-POB-G:MeC base pair (dsDNA, O6-POB-dG at strand 1 position 9; 5-methyl-C at strand 2 position 11) DNA 1: CATGAACCGGAGGCCCATC DNA 2: GATGGGCCTCCGGTTCATG    1800 nM
p53 codon 248 both MeC O6-POB-G (dsDNA, O6-POB-dG at strand 1 position 9; 5-methyl-C at strand 1 position 8 and strand 2 position 11) DNA 1: CATGAACCGGAGGCCCATC DNA 2: GATGGGCCTCCGGTTCATG    1000 nM
p53 codon 248 5'-MeC O6-POB-G (dsDNA, O6-POB-dG at strand 1 position 9; 5-methyl-C at strand 1 position 8) DNA 1: CATGAACCGGAGGCCCATC DNA 2: GATGGGCCTCCGGTTCATG    2000 nM

Quickly give me recorded Kd for p53 codon 248 O6-POB-G (dsDNA, O6-POB-dG at strand 1 position 9) DNA 1: CATGAACCGGAGGCCCATC DNA 2: GATGGGCCTCCGGTTCATG
2200 nM

Quickly give me recorded Kd for p53 codon 158 5'-MeC O6-POB-G (dsDNA, O6-POB-dG at strand 1 position 11; 5-methyl-C at strand 1 position 10 (text; Table 4 marks lost)) DNA 1: ACCCGCGTCCGCGCCATGGCC DNA 2: GGCCATGGCGCGGACGCGGGT
4800 nM
